// pI lookup, one value per entry
ASSAY_INFO: pI and charge of the self-assembling peptide
Assay type: physicochemical

# annotated cases, reported pI shown
[[record]]
substance = "Ac(FKFQ)3-CONH2 (Ac-FKFQFKFQFKFQ-NH2) [FKF = 1% solution; FKF-2P = 2% solution, reference compound]"
result = "10.30,"

[[record]]
substance = "Ac(RADA)4GGDGRGDSVAYG-CONH2 (Ac-RADARADARADARADAGGDGRGDSVAYG-NH2) [SEQ ID NO. 5, Cell adhesion domain (Osteopontin); DGR-2P = 2% solution]"
result = "4.78,"

[[record]]
substance = "Ac(RADA)4GGSKPPGTSS-CONH2 (Ac-RADARADARADARADAGGSKPPGTSS-NH2) [Bone marrow homing; SKP = 1% solution]"
result = 9.74


Next:
Could you share which pI value was measured for Ac(RADA)4GGFHRRIKA-CONH2 (Ac-RADARADARADARADAGGFHRRIKA-NH2) [FHR = 1% solution; FHR-2P = 2% solution] ? 11.32,
